target: T1, human MSLN-R3-3 polypeptide (human); assay: ELISA on coated antigen, antibody 1 nM
T1 construct: also called human MSLN-R3-3 protein; hMSLN-R3-3
measuredParameter: OD450

1) S009-F2.58.8 (antibody, human IgG1, kappa, V domains shown, Human-murine chimeric antibody: murine VH/VL on human IgG1 heavy and kappa light constant regions) VH: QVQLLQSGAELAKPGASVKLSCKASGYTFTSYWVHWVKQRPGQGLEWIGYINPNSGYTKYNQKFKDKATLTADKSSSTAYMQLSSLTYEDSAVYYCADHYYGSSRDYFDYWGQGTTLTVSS VL: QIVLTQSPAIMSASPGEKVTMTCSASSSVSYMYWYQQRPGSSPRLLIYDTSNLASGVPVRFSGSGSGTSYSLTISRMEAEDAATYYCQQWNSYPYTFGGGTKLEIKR: 0.06 OD450
2) S009-F2.39.3 (antibody, human IgG1, kappa, V domains shown, Human-murine chimeric antibody: murine VH/VL on human IgG1 heavy and kappa light constant regions) VH: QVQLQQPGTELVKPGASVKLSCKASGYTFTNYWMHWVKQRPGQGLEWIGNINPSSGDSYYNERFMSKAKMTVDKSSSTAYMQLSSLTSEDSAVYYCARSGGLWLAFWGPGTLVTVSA VL: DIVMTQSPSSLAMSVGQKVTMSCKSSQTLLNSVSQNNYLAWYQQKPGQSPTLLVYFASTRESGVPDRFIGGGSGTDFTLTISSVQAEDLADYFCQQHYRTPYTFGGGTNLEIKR: 0.05 OD450
3) S009-F2.16.10 (antibody, human IgG1, kappa, V domains shown, Human-murine chimeric antibody: murine VH/VL on human IgG1 heavy and kappa light constant regions) VH: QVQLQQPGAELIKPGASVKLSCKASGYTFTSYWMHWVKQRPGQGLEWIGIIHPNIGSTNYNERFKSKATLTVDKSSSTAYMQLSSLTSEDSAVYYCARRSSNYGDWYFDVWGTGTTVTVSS VL: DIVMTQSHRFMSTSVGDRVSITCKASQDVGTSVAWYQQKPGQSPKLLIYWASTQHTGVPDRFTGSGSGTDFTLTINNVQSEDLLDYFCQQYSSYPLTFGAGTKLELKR: 0.05 OD450
4) S009-F2.38.12 (antibody, human IgG1, kappa, V domains shown, Human-murine chimeric antibody: murine VH/VL on human IgG1 heavy and kappa light constant regions) VH: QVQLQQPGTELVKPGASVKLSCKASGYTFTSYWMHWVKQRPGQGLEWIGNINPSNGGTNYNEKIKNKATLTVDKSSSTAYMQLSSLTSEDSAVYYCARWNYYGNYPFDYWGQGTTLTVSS VL: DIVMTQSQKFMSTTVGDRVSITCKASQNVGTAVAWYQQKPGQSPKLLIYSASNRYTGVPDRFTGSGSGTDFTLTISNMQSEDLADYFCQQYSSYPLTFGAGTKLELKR: 0.05 OD450
5) S009-F2.13.3 (antibody, human IgG1, kappa, V domains shown, Human-murine chimeric antibody: murine VH/VL on human IgG1 heavy and kappa light constant regions) VH: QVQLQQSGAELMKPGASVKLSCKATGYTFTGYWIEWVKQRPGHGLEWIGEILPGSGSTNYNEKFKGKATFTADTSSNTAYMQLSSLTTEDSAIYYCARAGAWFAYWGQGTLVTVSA VL: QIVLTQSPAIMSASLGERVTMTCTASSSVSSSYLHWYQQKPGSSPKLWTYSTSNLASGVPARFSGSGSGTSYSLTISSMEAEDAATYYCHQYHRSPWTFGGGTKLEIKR: 0.05 OD450
6) S009-F2-56.12 (antibody, human IgG1, kappa, V domains shown, Human-murine chimeric antibody: murine VH/VL on human IgG1 heavy and kappa light constant regions) VH: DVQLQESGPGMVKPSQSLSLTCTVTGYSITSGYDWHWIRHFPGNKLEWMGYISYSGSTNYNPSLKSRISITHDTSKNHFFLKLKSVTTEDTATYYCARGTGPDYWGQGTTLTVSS VL: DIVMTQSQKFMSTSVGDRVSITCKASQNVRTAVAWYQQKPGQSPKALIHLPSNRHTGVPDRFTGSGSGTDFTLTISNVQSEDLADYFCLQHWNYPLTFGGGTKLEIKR: 0.06 OD450
7) S009-F2.23.12 (antibody, human IgG1, kappa, V domains shown, Human-murine chimeric antibody: murine VH/VL on human IgG1 heavy and kappa light constant regions) VH: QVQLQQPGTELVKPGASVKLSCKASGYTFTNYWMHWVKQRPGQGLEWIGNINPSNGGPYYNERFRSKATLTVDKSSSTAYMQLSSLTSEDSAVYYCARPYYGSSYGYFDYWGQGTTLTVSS VL: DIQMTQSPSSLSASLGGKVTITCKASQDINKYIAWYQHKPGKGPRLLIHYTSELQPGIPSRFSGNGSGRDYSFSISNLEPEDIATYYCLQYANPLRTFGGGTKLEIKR: 0.05 OD450
8) S009-F2.47.1 (antibody, human IgG1, kappa, V domains shown, Human-murine chimeric antibody: murine VH/VL on human IgG1 heavy and kappa light constant regions) VH: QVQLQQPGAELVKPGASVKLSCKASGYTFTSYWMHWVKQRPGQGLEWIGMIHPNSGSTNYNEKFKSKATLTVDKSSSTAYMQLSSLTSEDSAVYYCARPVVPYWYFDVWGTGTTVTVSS VL: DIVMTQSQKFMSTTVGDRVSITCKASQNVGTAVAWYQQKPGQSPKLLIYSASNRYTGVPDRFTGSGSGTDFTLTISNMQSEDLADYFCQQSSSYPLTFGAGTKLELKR: 0.05 OD450
9) S009-F2.21.4 (antibody, human IgG1, kappa, V domains shown, Human-murine chimeric antibody: murine VH/VL on human IgG1 heavy and kappa light constant regions) VH: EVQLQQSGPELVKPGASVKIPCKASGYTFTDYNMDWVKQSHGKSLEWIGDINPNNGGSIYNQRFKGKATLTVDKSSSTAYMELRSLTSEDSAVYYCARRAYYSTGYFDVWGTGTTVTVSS VL: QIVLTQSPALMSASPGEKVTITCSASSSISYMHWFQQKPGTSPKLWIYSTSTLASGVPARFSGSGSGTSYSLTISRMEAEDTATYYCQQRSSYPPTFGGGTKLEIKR: 0.05 OD450
